System: 786-0
assay method text: NCI tumour cell line growth inhibition, 48 h
The source made the active and inactive calls. Cut-off read from the data, not from the text of the source: active = GI50 up to about 1.1 µM and inactive = higher.
I'd be grateful if you could share measured GI50 for these entries.

Sample answers from the record:
compound	target desc	observed measurement
COc1ccccc1NC(=S)Nc1cc(C)ccn1	786-0	> 100 µM (inactive)
N/N=C(\c1nc2ccc([N+](=O)[O-])cc2nc1O)C(O)c1ccc(Cl)c(Cl)c1 (configuration not stated)	786-0	> 100 µM (inactive)
O=C1NC2C3CC(OCc4ccccc4)(OCc4ccccc4)C2OC3O1 (configuration not stated)	786-0	> 50 µM (inactive)
CCOC(=O)Nn1cnnc1Cc1ccccc1	786-0	> 100 µM (inactive)
CC(=O)Nc1ccc(-c2nnc(SCC(=O)Nc3cccc(Cl)c3)o2)cc1	786-0	6.49 µM (inactive)

Report GI50 for each item below.
1. C=CCNC(=O)NCCCCC(NC(C)=O)C(=O)NCc1ccccc1 (configuration not stated)
2. CCCCCC(=O)C(C)C1=Nc2nnc(CCCCCCCc3nnc4n3C(=O)C(C(C)C(=O)CCCCC)=N4)n2C1=O (configuration not stated)
3. Cc1cc(OCC(=O)O)c(Cl)cc1Cl
4. C=C1C(=O)OC2/C=C(\CO)CC/C=C(\CO)CC(OC(=O)C(C)C)C12 (configuration not stated)
5. Cc1ccc(S(=O)(=O)N/N=C2\CCCCC23CCC(=O)NC3)cc1 (configuration not stated)
6. CCNC(=S)N/N=C/c1cc(OC)ccc1O
7. COc1cc2c(cc1OCCCC(=O)Nc1cc(C(=O)NCCCN(C)C)n(C)n1)N=CC1CCCN1C2=O (configuration not stated)

1. > 100 µM (inactive)
2. > 100 µM (inactive)
3. > 100 µM (inactive)
4. 5.52 µM (inactive)
5. > 100 µM (inactive)
6. 67.1 µM (inactive)
7. 6.46 µM (inactive)

Report GI50 for each item below.
1. COC(=O)/C=C\C(C#N)(C#N)/N=C/c1cccc(OC)c1
2. C/C(=N\Nc1nc2ccccc2s1)c1ccc2ccccc2n1
3. O=C(c1cccc2ccccc12)N1CCC(C2CCN(C(=O)c3cccc4ccccc34)CC2)CC1
4. CCOC(=O)c1ccc(C)c(/N=N/N(C)C)c1
5. CCCCCCCC(CC(=O)NC(CO)C(=O)NC(CO)CC(C)C)OC(=O)CC(CCCCCCC)OC(=O)CC(CCCCCCC)OC1OC(C)C(O)C(OC2OC(C)C(O)C(OC(C)=O)C2O)C1O (configuration not stated)
6. CCOC(=O)C1C(c2ccccc2)C2(C#N)C(=N)OC1(C)C2(C#N)C#N (configuration not stated)

1. 3.51 µM (inactive)
2. > 100 µM (inactive)
3. > 100 µM (inactive)
4. > 100 µM (inactive)
5. 13.4 µM (inactive)
6. 13.6 µM (inactive)

Report GI50 for each item below.
1. CCOP(=O)(OCC)/C(C#N)=C/c1cccn1C(C)C
2. N#CC1=C2Sc3ccccc3N2[C@H](c2ccccc2)[C@H]2COC(=O)[C@@H]12
3. COc1ccc(C(=O)Nc2ccccc2)cc1[N+](=O)[O-]
4. NCCCN(CCCCN(CCCN)Cc1ccccc1)Cc1ccccc1

> 100 µM (inactive)
> 100 µM (inactive)
> 100 µM (inactive)
23.1 µM (inactive)
